# Assay Procedure: Inhibition of goat anti-human IgM F(ab')-stimulated CD69 cell surface expression in human PBMC preincubated for 2 hrs followed by anti-human IgM stimulation for 18 hrs by flow cytometric analysis
# Type: functional, tissue-based
pEC50: −log10 of the molar value.
Value Type: pEC50

Give the value of pEC50 reported for the following: C=CC(=O)Nc1ccc2nccc(Oc3ccc(C(=O)Nc4cc(CC)ccn4)cc3)c2c1 7.82

Give the value of pEC50 reported for the following: CC#CC(=O)Nc1cc2c(Oc3ccc(C(=O)Nc4ccccn4)cc3)ccnc2cc1OCCCN1CCN(C)CC1 8.68

Give the value of pEC50 reported for the following: COc1cc2nccc(Oc3ccc(C(=O)Nc4ccccn4)cc3)c2cc1NC(=O)C#CCCN1CCOCC1 8.74

[1] CC#CC(=O)Nc1cc2c(Oc3ccc(C(=O)Nc4ccccn4)cc3)ccnc2cc1OCCN1CCOCC1
[2] COc1cc2nccc(Oc3ccc(C(=O)Nc4ccccn4)cc3)c2cc1NC(=O)C#CCN1CCOCC1
[3] CC#CC(=O)Nc1cc2c(Oc3ccc(C(=O)Nc4ccccn4)cc3)ccnc2cc1OC
# desc sort on pEC50 across 3 compounds State the ranking by listing the labels in the requested order. 2, 1, 3
